test system: morningglory; assay: postemergence herbicidal activity on morningglory; type: in vivo, Ipomea lacunosa or Ipomea hederacea; conditions: Ipomoea, post-emergence, 0.3 Kg/Ha, after 12-17 days, read-out: POSTEMERGENCE HERBICIDAL ACTIVITY (% CONTROL) IPOSS
Reported metric: activity at 300 g/ha (%)
Reply with just the number (in %).

# Compound, activity at 300 g/ha / %
rows = [
    ("Cc1nn(-c2cc(CC(Cl)COC(=O)NC3CCCCC3)c(Cl)cc2F)c(=O)n1C(F)F (centres unmarked)", 80),
    ("Cc1nn(-c2cc(CC(Cl)COC(=O)NC(C)(C)C)c(Cl)cc2F)c(=O)n1C(F)F (centres unmarked)", 100),
    ("Cc1nn(-c2cc(CC(Cl)CO)c(Cl)cc2F)c(=O)n1C(F)F (centres unmarked)", 100),
    ("CCNC(=O)OCC(Cl)Cc1cc(-n2nc(C)n(C(F)F)c2=O)c(F)cc1Cl (centres unmarked)", 95),
]

Exam item: Can you look up the measured activity at 300 g/ha of CCCCCCNC(=O)OCC(Cl)Cc1cc(-n2nc(C)n(C(F)F)c2=O)c(F)cc1Cl (centres unmarked) for me?
Marked response: 100

----------
system: blackgrass; experiment: preemergence herbicidal activity on blackgrass; assay type: in vivo, Aloepecurus myosuroides; conditions: Alopecurus myosuroides, pre-emergence, 0.3 Kg/Ha, after 12-17 days, read-out: PREEMERGENCE HERBICIDAL ACTIVITY (% CONTROL) ALOMY
Reported metric: activity at 300 g/ha (%)
Reply with just the number (in %).

# Molecule, Quantitative readout
rows = [
    ("Cc1nn(-c2cc(CC(Cl)C(C)(C)O)c(Cl)cc2F)c(=O)n1C(F)F (stereo not drawn) [Compound 2]", 70),
    ("CNC(=O)OCC(Cl)Cc1cc(-n2nc(C)n(C(F)F)c2=O)c(F)cc1Cl (stereo not drawn) [Compound 31]", 70),
    ("Cn1c(C(F)(F)F)cc(=O)n(-c2cc(CC(Cl)C(C)(C)O)c(Cl)cc2F)c1=O (stereo not drawn) [Compound 1]", 80),
    ("CCCCCCNC(=O)OCC(Cl)Cc1cc(-n2nc(C)n(C(F)F)c2=O)c(F)cc1Cl (stereo not drawn) [Compound 36]", 50),
]

Exam item: Can you look up the measured activity at 300 g/ha of Cc1nn(-c2cc(CC(Cl)CO)c(Cl)cc2F)c(=O)n1C(F)F (stereo not drawn) [Compound 24] for me?
Marked response: 10

Exam item: How about Cc1nn(-c2cc(CC(Cl)COC(=O)NC(C)C)c(Cl)cc2F)c(=O)n1C(F)F (stereo not drawn) [Compound 34] ?
Marked response: 60

Exam item: How about Cc1nn(-c2cc(CC(Cl)COC(=O)NC3CCCCC3)c(Cl)cc2F)c(=O)n1C(F)F (stereo not drawn) [Compound 35] ?
Marked response: 30

Exam item: How about Cc1nn(-c2cc(CC(Cl)COC(=O)NC(C)(C)C)c(Cl)cc2F)c(=O)n1C(F)F (stereo not drawn) [Compound 33] ?
Marked response: 70

Exam item: How about CCNC(=O)OCC(Cl)Cc1cc(-n2nc(C)n(C(F)F)c2=O)c(F)cc1Cl (stereo not drawn) [Compound 32] ?
Marked response: 75

----------
tested on: corn; test: preemergence herbicidal activity on corn; format: in vivo, Zea mays var. Pioneer 3732; details: Zea mays, pre-emergence, 0.3 Kg/Ha, after 12-17 days, read-out: PREEMERGENCE HERBICIDAL ACTIVITY (% CONTROL) CRN
Reported metric: activity at 300 g/ha (%)
Reply with just the number (in %).

Worked cases, answers included:
# Molecule, Assayed target, Reported metric, Quantitative readout
measured = [
    ("Cn1c(C(F)(F)F)cc(=O)n(-c2cc(CC(Cl)C(C)(C)O)c(Cl)cc2F)c1=O (stereo not shown)", "corn", "activity at 300 g/ha", 95),
    ("CC(=O)OC(C)(C)C(Cl)Cc1cc(-n2nc(C)n(C(F)F)c2=O)c(F)cc1Cl (stereo not shown)", "corn", "activity at 300 g/ha", 85),
    ("CCNC(=O)OCC(Cl)Cc1cc(-n2nc(C)n(C(F)F)c2=O)c(F)cc1Cl (stereo not shown)", "corn", "activity at 300 g/ha", 70),
    ("CCCCCCNC(=O)OCC(Cl)Cc1cc(-n2nc(C)n(C(F)F)c2=O)c(F)cc1Cl (stereo not shown)", "corn", "activity at 300 g/ha", 30),
    ("Cc1nn(-c2cc(CC(Cl)CO)c(Cl)cc2F)c(=O)n1C(F)F (stereo not shown)", "corn", "activity at 300 g/ha", 70),
]

Exam item: Can you look up the measured activity at 300 g/ha of CC(=O)OC(C)(C)C(Cl)Cc1cc(-c2nn(C)c(OC(F)F)c2Cl)c(F)cc1Cl (stereo not shown) for me?
Marked response: 20

Exam item: How about CNC(=O)OCC(Cl)Cc1cc(-n2nc(C)n(C(F)F)c2=O)c(F)cc1Cl (stereo not shown) ?
Marked response: 90

Exam item: How about Cc1nn(-c2cc(CC(Cl)COC(=O)NC(C)C)c(Cl)cc2F)c(=O)n1C(F)F (stereo not shown) ?
Marked response: 70

Exam item: How about Cc1nn(-c2cc(CC(Cl)COC(=O)NC(C)(C)C)c(Cl)cc2F)c(=O)n1C(F)F (stereo not shown) ?
Marked response: 80

Exam item: How about Cc1nn(-c2cc(CC(Cl)C(C)(C)O)c(Cl)cc2F)c(=O)n1C(F)F (stereo not shown) ?
Marked response: 80

----------
Items are presented alongside their recorded activity at 300 g/ha.
test system: velvetleaf; assay: postemergence herbicidal activity on velvetleaf; format: in vivo; details: Abutilon theophrasti, post-emergence, 0.3 Kg/Ha, after 12-17 days, read-out: POSTEMERGENCE HERBICIDAL ACTIVITY (% CONTROL) ABUTH
Reply with just the number (in %).

Worked cases, answers included:
# Compound, Unit of measure, Quantitative readout
measured = [
    ("CCCCCCNC(=O)OCC(Cl)Cc1cc(-n2nc(C)n(C(F)F)c2=O)c(F)cc1Cl (stereo not drawn) [Compound 36]", "%", 100),
    ("CC(=O)OC(C)(C)C(Cl)Cc1cc(-c2nn(C)c(OC(F)F)c2Cl)c(F)cc1Cl (stereo not drawn) [Compound 18]", "%", 100),
    ("Cc1nn(-c2cc(CC(Cl)CO)c(Cl)cc2F)c(=O)n1C(F)F (stereo not drawn) [Compound 24]", "%", 100),
    ("CC(=O)OC(C)(C)C(Cl)Cc1cc(-n2nc(C)n(C(F)F)c2=O)c(F)cc1Cl (stereo not drawn) [Compound 17]", "%", 100),
    ("Cc1nn(-c2cc(CC(Cl)COC(=O)NC(C)(C)C)c(Cl)cc2F)c(=O)n1C(F)F (stereo not drawn) [Compound 33]", "%", 100),
    ("CCNC(=O)OCC(Cl)Cc1cc(-n2nc(C)n(C(F)F)c2=O)c(F)cc1Cl (stereo not drawn) [Compound 32]", "%", 100),
    ("Cc1nn(-c2cc(CC(Cl)COC(=O)NC(C)C)c(Cl)cc2F)c(=O)n1C(F)F (stereo not drawn) [Compound 34]", "%", 100),
    ("Cc1nn(-c2cc(CC(Cl)C(C)(C)O)c(Cl)cc2F)c(=O)n1C(F)F (stereo not drawn) [Compound 2]", "%", 100),
]

Exam item: Can you look up the measured activity at 300 g/ha of CNC(=O)OCC(Cl)Cc1cc(-n2nc(C)n(C(F)F)c2=O)c(F)cc1Cl (stereo not drawn) [Compound 31] for me?
Marked response: 100

----------
system: velvetleaf; experiment: postemergence herbicidal activity on velvetleaf; type: in vivo; conditions: Abutilon theophrasti, post-emergence, 0.3 Kg/Ha, after 12-17 days, read-out: POSTEMERGENCE HERBICIDAL ACTIVITY (% CONTROL) ABUTH
Reported metric: activity at 300 g/ha (%)
Reply with just the number (in %).

Worked cases, answers included:
# Compound, activity at 300 g/ha [%]
measured = [
    ("CC(=O)OC(C)(C)C(Cl)Cc1cc(-n2c(=O)cc(C(F)(F)F)n(C)c2=O)c(F)cc1Cl (stereo not shown)", 100),
    ("Cc1nn(-c2cc(CC(Cl)COC(=O)NC3CCCCC3)c(Cl)cc2F)c(=O)n1C(F)F (stereo not shown)", 100),
]

Exam item: Find the measured activity at 300 g/ha: item Cn1nc(-c2cc(CC(Cl)C(C)(C)O)c(Cl)cc2F)c(Cl)c1OC(F)F (stereo not shown) , target or system velvetleaf.
Marked response: 100

Exam item: How about Cn1c(C(F)(F)F)cc(=O)n(-c2cc(CC(Cl)C(C)(C)O)c(Cl)cc2F)c1=O (stereo not shown) ?
Marked response: 100
